Target: Nicotinamide N-methyltransferase (Homo sapiens) (UniProt P40261)
Sequence (P40261 whole entry, looked up): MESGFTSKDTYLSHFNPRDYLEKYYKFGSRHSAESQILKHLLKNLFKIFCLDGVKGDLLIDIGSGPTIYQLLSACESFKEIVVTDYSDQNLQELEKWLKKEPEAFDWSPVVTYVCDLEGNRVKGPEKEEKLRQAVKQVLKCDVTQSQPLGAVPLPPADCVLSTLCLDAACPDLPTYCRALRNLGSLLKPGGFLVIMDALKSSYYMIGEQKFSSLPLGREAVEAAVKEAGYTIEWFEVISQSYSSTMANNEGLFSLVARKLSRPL
Test: Confirmatory Screen for Target Class Profiling of Small Molecule Inhibitors of Methyltransferases (AID 1745852)
Settings: MTase-Glo luminescence, SAH detection, recombinant enzyme, stronger effect = lower value; measured here: NNMT max response unless noted
Assign activity to each entry below.
Please reply with the bare figure in % and do not write the unit itself.

// query Which value of activity has been reported for Oc1ccc2ccccc2c1SSc1c(O)ccc2ccccc12 in the records?
// result -8.59

// query Also check COc1cc(Nc2c(C#N)cnc3cc(OCCCN4CCN(C)CC4)c(OC)cc23)c(Cl)cc1Cl
// result -86.9

// query Repeat with CCN(CC)C(=S)SSC(=S)N(CC)CC
// result -10.3

// query Same again, this time with CCN(CC)CCOc1ccc(Nc2ncc3cc(-c4c(Cl)cccc4Cl)c(=O)n(C)c3n2)cc1
// result -19.9

// query Repeat for the following molecule: Cc1nc(Nc2ncc(C(=O)Nc3c(C)cccc3Cl)s2)cc(N2CCN(CCO)CC2)n1
// result -33

// query Try the molecule O=c1ccc2ccc(O)c(O)c2o1
// result -4.08
